Test settings: in methanol, 308.15 K
Reported metric: solubility (mole fraction)

Record request: solubility (mole fraction) value, item CCOC(=O)C1(c2ccccc2)CCN(CCC(C#N)(c2ccccc2)c2ccccc2)CC1
0.0118

* * *

Test settings: in ethanol, 283.15 K
Reported metric: solubility (mole fraction)
Give the value as a plain number.

Record request: solubility (mole fraction) value, item CCOC(=O)C1(c2ccccc2)CCN(CCC(C#N)(c2ccccc2)c2ccccc2)CC1
0.00109

* * *

Test settings: in ethanol, 303.15 K
Reported metric: solubility (mole fraction)
Give the value as a plain number.

Record request: solubility (mole fraction) value, item CCOC(=O)C1(c2ccccc2)CCN(CCC(C#N)(c2ccccc2)c2ccccc2)CC1
0.00227

* * *

Test settings: in isopropanol, 303.15 K
Reported metric: solubility (mole fraction)
Give the value as a plain number.

Record request: solubility (mole fraction) value, item CCOC(=O)C1(c2ccccc2)CCN(CCC(C#N)(c2ccccc2)c2ccccc2)CC1
0.000601

* * *

Test settings: in isopropanol, 288.15 K
Reported metric: solubility (mole fraction)
Give the value as a plain number.

Record request: solubility (mole fraction) value, item CCOC(=O)C1(c2ccccc2)CCN(CCC(C#N)(c2ccccc2)c2ccccc2)CC1
0.000208

* * *

Test settings: in ethanol, 318.15 K
Reported metric: solubility (mole fraction)
Give the value as a plain number.

Record request: solubility (mole fraction) value, item CCOC(=O)C1(c2ccccc2)CCN(CCC(C#N)(c2ccccc2)c2ccccc2)CC1
0.00432

* * *

Test settings: in ethanol, 293.15 K
Reported metric: solubility (mole fraction)
Give the value as a plain number.

Record request: solubility (mole fraction) value, item CCOC(=O)C1(c2ccccc2)CCN(CCC(C#N)(c2ccccc2)c2ccccc2)CC1
0.00154

* * *

Test settings: in water, 288.15 K
Reported metric: solubility (mole fraction)
Give the value as a plain number.

Record request: solubility (mole fraction) value, item CCOC(=O)C1(c2ccccc2)CCN(CCC(C#N)(c2ccccc2)c2ccccc2)CC1
6.84e-06

* * *

Test settings: in isopropanol, 308.15 K
Reported metric: solubility (mole fraction)
Give the value as a plain number.

Record request: solubility (mole fraction) value, item CCOC(=O)C1(c2ccccc2)CCN(CCC(C#N)(c2ccccc2)c2ccccc2)CC1
0.000838

* * *

Test settings: in methanol, 293.15 K
Reported metric: solubility (mole fraction)
Give the value as a plain number.

Record request: solubility (mole fraction) value, item CCOC(=O)C1(c2ccccc2)CCN(CCC(C#N)(c2ccccc2)c2ccccc2)CC1
0.0063

* * *

Test settings: in water, 283.15 K
Reported metric: solubility (mole fraction)
Give the value as a plain number.

Record request: solubility (mole fraction) value, item CCOC(=O)C1(c2ccccc2)CCN(CCC(C#N)(c2ccccc2)c2ccccc2)CC1
5.3e-06

* * *

Test settings: in isopropanol, 298.15 K
Reported metric: solubility (mole fraction)

Record request: solubility (mole fraction) value, item CCOC(=O)C1(c2ccccc2)CCN(CCC(C#N)(c2ccccc2)c2ccccc2)CC1
0.000421

* * *

Test settings: in isopropanol, 278.15 K
Reported metric: solubility (mole fraction)
Give the value as a plain number.

Record request: solubility (mole fraction) value, item CCOC(=O)C1(c2ccccc2)CCN(CCC(C#N)(c2ccccc2)c2ccccc2)CC1
0.000106

* * *

Test settings: in isopropanol, 318.15 K
Reported metric: solubility (mole fraction)
Give the value as a plain number.

Record request: solubility (mole fraction) value, item CCOC(=O)C1(c2ccccc2)CCN(CCC(C#N)(c2ccccc2)c2ccccc2)CC1
0.00156
